Test: Extensive tissue distribution study in CT26 tumor-bearing mice
Type: in vivo, Balb/c mice
Conditions: Balb/c, mouse, esophagus / plasma, oral, 75 mg/kg, 75 mg/kg PO; Esophagus to plasma AUC; read-out: Partition Coefficient
outcome_measure: Kp

compound: C[C@@H]1COCCN1c1cc(C2([S@](C)(=N)=O)CC2)nc(-c2cc[nH]c3nccc2-3)n1 [AZD6738]
outcome_measure: Kp
result: 3.27

====

Experiment: Extensive tissue distribution study in CT26 tumor-bearing mice
Assay type: in vivo, Balb/c mice
Conditions: Balb/c, mouse; 75 mg/kg PO; Thymus; 0-1440 min; read-out: AUC0-t (converted)
Procedure: Mice were injected subcutaneously on the right flank with 1x10^6 CT26 cells, a murine colorectal carcinoma cell line from BALB/c mice,obtained from ATCC (Manassas, VA). […] Implantation and tumor growth were monitored twice weekly with a digital caliper. […] For tissue and tumor analysis, samples were homogenized with 3 parts PBS (v/g) and further diluted with control plasma and concentrations determined from calibration curves prepared in control plasma.
outcome_measure: AUC(0-t) (ng·h/mL)

compound: C[C@@H]1COCCN1c1cc(C2([S@](C)(=N)=O)CC2)nc(-c2cc[nH]c3nccc2-3)n1 [AZD6738]
outcome_measure: AUC(0-t)
readout_units: ng·h/mL
number: 25800

====

Experiment: Extensive tissue distribution study in CT26 tumor-bearing mice
Assay type: in vivo, Balb/c mice
Conditions: Balb/c, mouse; 75 mg/kg PO; Thymus
outcome_measure: AUC(0-inf) (ng·h/mL)

line_notation: C[C@@H]1COCCN1c1cc(C2([S@](C)(=N)=O)CC2)nc(-c2cc[nH]c3nccc2-3)n1
number: 25800

====

Experiment: in vivo
Settings: Balb/c, mouse, po, 20 mg/kg
outcome_measure: Cmax

line_notation: C[C@@H]1COCCN1c1cc(C2([S@](C)(=N)=O)CC2)nc(-c2cc[nH]c3nccc2-3)n1
outcome_measure: Cmax
result: 4960 ng/mL

====

Test: in vivo
Settings: Balb/c, mouse, po, 2 mg/kg

compound: C[C@@H]1COCCN1c1cc(C2([S@](C)(=N)=O)CC2)nc(-c2cc[nH]c3nccc2-3)n1 [AZD6738]
Cmax, ng/mL: 160

====

Experiment: Extensive tissue distribution study in CT26 tumor-bearing mice
Format: in vivo, Balb/c mice
Conditions: Balb/c, mouse, skeletal muscle; 75 mg/kg PO; Muscle; read-out: Tmax (converted)
outcome_measure: Tmax (min)

compound: C[C@@H]1COCCN1c1cc(C2([S@](C)(=N)=O)CC2)nc(-c2cc[nH]c3nccc2-3)n1 [AZD6738]
readout_units: min
number: 15

====

Experiment: Extensive tissue distribution study in CT26 tumor-bearing mice
Type: in vivo, Balb/c mice
Settings: Balb/c, mouse; 75 mg/kg PO; Non-draining Lymph Node; read-out: Cmax
outcome_measure: Cmax (ng/mL)

compound: C[C@@H]1COCCN1c1cc(C2([S@](C)(=N)=O)CC2)nc(-c2cc[nH]c3nccc2-3)n1 [AZD6738]
outcome_measure: Cmax
number: 16100

====

Assay: Intestinal contribution to oral bioavailability (hepatic and gut contributions calculated from IV PK)
Format: in vivo, mice
Conditions: Balb/c, plasma; 10 mg/kg IV; average mouse size 18.3 g; read-out: ClPlasma

line_notation: C[C@@H]1COCCN1c1cc(C2([S@](C)(=N)=O)CC2)nc(-c2cc[nH]c3nccc2-3)n1
clearance: 0.634 mL/min

====

Assay: in vivo
Conditions: Balb/c, mouse, iv, 10 mg/kg

molecule: C[C@@H]1COCCN1c1cc(C2([S@](C)(=N)=O)CC2)nc(-c2cc[nH]c3nccc2-3)n1 [AZD6738]
Cmax: 7040 ng/mL

====

Test: Extensive tissue distribution study in CT26 tumor-bearing mice
Format: in vivo, Balb/c mice
Settings: Balb/c, mouse; 75 mg/kg PO; Esophagus

compound: C[C@@H]1COCCN1c1cc(C2([S@](C)(=N)=O)CC2)nc(-c2cc[nH]c3nccc2-3)n1 [AZD6738]
readout_units: µg·h/mL
AUC(0-inf): 129

====

Assay: Extensive tissue distribution study in CT26 tumor-bearing mice
Assay type: in vivo, Balb/c mice
Settings: Balb/c, mouse, fat, oral, 75 mg/kg, 75 mg/kg PO; Fat to plasma AUC; read-out: Partition Coefficient
outcome_measure: Kp

line_notation: C[C@@H]1COCCN1c1cc(C2([S@](C)(=N)=O)CC2)nc(-c2cc[nH]c3nccc2-3)n1
number: 0.412

====

Test: Extensive tissue distribution study in CT26 tumor-bearing mice
Assay type: in vivo, Balb/c mice
Settings: Balb/c, mouse, skeletal muscle; 75 mg/kg PO; Muscle; read-out: Cmax

line_notation: C[C@@H]1COCCN1c1cc(C2([S@](C)(=N)=O)CC2)nc(-c2cc[nH]c3nccc2-3)n1
Cmax, ng/mL: 12500

====

Assay: Extensive tissue distribution study in CT26 tumor-bearing mice
Assay type: in vivo, Balb/c mice
Details: Balb/c, mouse, thymus / plasma, oral, 75 mg/kg, 75 mg/kg PO; Thymus to plasma AUC; read-out: Partition Coefficient
outcome_measure: Kp

line_notation: C[C@@H]1COCCN1c1cc(C2([S@](C)(=N)=O)CC2)nc(-c2cc[nH]c3nccc2-3)n1
number: 0.652

====

Assay: Extensive tissue distribution study in CT26 tumor-bearing mice
Assay type: in vivo, Balb/c mice
Conditions: Balb/c, mouse, red blood cells (RBC) / plasma, oral, 75 mg/kg, 75 mg/kg PO; RBC to plasma AUC; read-out: Partition Coefficient

line_notation: C[C@@H]1COCCN1c1cc(C2([S@](C)(=N)=O)CC2)nc(-c2cc[nH]c3nccc2-3)n1
Kp: 0.701

====

Assay: Extensive tissue distribution study in CT26 tumor-bearing mice
Format: in vivo, Balb/c mice
Details: Balb/c, mouse, red blood cells (RBC); 75 mg/kg PO; RBC; 0-1440 min; read-out: AUC0-t (converted)

line_notation: C[C@@H]1COCCN1c1cc(C2([S@](C)(=N)=O)CC2)nc(-c2cc[nH]c3nccc2-3)n1
AUC(0-t): 27700 ng·h/mL

====

Assay: Extensive tissue distribution study in CT26 tumor-bearing mice
Format: in vivo, Balb/c mice
Details: Balb/c, mouse, red blood cells (RBC); 75 mg/kg PO; RBC; read-out: Cmax
outcome_measure: Cmax (ng/mL)

molecule: C[C@@H]1COCCN1c1cc(C2([S@](C)(=N)=O)CC2)nc(-c2cc[nH]c3nccc2-3)n1 [AZD6738]
outcome_measure: Cmax
number: 13200

====

Experiment: Unified compartmental PK model (ADAPT5)
Design: species or system mice
Settings: Balb/c, mouse, plasma; 75 mg/kg PO; read-out: Model F (compartmental bioavailability)
outcome_measure: bioavailability (%)

compound: C[C@@H]1COCCN1c1cc(C2([S@](C)(=N)=O)CC2)nc(-c2cc[nH]c3nccc2-3)n1 [AZD6738]
number: 90.8

====

Assay: Extensive tissue distribution study in CT26 tumor-bearing mice
Assay type: in vivo, Balb/c mice
Details: Balb/c, mouse; 75 mg/kg PO; Bone Marrow

line_notation: C[C@@H]1COCCN1c1cc(C2([S@](C)(=N)=O)CC2)nc(-c2cc[nH]c3nccc2-3)n1
readout_units: µg·h/mL
AUC(0-inf): 133

====

Assay: Extensive tissue distribution study in CT26 tumor-bearing mice
Assay type: in vivo, Balb/c mice
Conditions: Balb/c, mouse; 75 mg/kg PO; Brain; 0-960 min; read-out: AUC0-t (converted)

compound: C[C@@H]1COCCN1c1cc(C2([S@](C)(=N)=O)CC2)nc(-c2cc[nH]c3nccc2-3)n1 [AZD6738]
AUC(0-t) (ng·h/mL): 2100

====

Assay: in vivo
Conditions: Balb/c, mouse, iv, 10 mg/kg

line_notation: C[C@@H]1COCCN1c1cc(C2([S@](C)(=N)=O)CC2)nc(-c2cc[nH]c3nccc2-3)n1
AUC(0-inf) / ng·h/mL: 5620

====

Experiment: Extensive tissue distribution study in CT26 tumor-bearing mice
Assay type: in vivo, Balb/c mice
Conditions: Balb/c, mouse; 75 mg/kg PO; Draining Lymph Node
outcome_measure: AUC(0-inf) (ng·h/mL)

compound: C[C@@H]1COCCN1c1cc(C2([S@](C)(=N)=O)CC2)nc(-c2cc[nH]c3nccc2-3)n1 [AZD6738]
outcome_measure: AUC(0-inf)
number: 31300

====

Test: Extensive tissue distribution study in CT26 tumor-bearing mice
Type: in vivo, Balb/c mice
Conditions: Balb/c, mouse, kidney; 75 mg/kg PO; Kidneys; 0-1440 min; read-out: AUC0-t (converted)
outcome_measure: AUC(0-t) (µg·h/mL)

line_notation: C[C@@H]1COCCN1c1cc(C2([S@](C)(=N)=O)CC2)nc(-c2cc[nH]c3nccc2-3)n1
readout_units: µg·h/mL
number: 109

====

Experiment: in vivo
Settings: Balb/c, mouse, po, 7.5 mg/kg

line_notation: C[C@@H]1COCCN1c1cc(C2([S@](C)(=N)=O)CC2)nc(-c2cc[nH]c3nccc2-3)n1
half-life [h]: 2.17
